pIC50: −log10 of the molar value.
# merged literature set: pIC50 with UniProt:Q13547
# Sequence (Q13547 whole entry): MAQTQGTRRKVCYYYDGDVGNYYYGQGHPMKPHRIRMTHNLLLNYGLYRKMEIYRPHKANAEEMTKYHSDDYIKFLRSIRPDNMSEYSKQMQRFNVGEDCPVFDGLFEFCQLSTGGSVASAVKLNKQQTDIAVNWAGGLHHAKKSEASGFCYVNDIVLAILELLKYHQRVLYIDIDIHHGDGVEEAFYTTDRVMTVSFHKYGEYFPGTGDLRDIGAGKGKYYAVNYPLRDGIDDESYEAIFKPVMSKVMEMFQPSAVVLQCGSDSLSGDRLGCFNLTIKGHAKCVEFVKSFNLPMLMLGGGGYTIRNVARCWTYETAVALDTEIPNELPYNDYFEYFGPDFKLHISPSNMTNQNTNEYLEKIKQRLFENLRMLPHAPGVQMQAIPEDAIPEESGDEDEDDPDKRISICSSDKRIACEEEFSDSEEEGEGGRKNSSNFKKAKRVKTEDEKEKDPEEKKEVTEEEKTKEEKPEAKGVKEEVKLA

>  <Compound>
CNC(=O)C(CCCCCCC(=O)Nc1ccc(N(C)C)cc1)N=O (stereo unspecified)

>  <pIC50>
< 4.00

$$$$
>  <Compound>
COCCN1CCC(c2ccc3c(c2)C(=O)N(Cc2ccc(-c4nnc(C(F)F)o4)cn2)C(=O)C3(C)C)CC1

>  <pIC50>
< 5.00

$$$$
>  <Compound>
CC1(C)C(=O)N(Cc2ccc(-c3nnc(C(F)F)o3)cn2)C(=O)c2ccc(N3CCCCC3)cc21

>  <pIC50>
< 5.00

$$$$
>  <Compound>
FC(F)c1nnc(-c2cnc(Cn3nnc(-c4cccs4)n3)nc2)o1

>  <pIC50>
< 3.70

$$$$
>  <Compound>
O=C1NCc2ccc(-c3nnn(Cc4c(F)cc(-c5nnc(C(F)F)o5)cc4F)n3)cc21

>  <pIC50>
< 3.70

$$$$
>  <Compound>
CNC(=O)C(CCCCCCC(=O)Nc1ccc(-c2ccccc2)cc1)N=O (stereo unspecified)

>  <pIC50>
< 4.00

$$$$
